- Tested on: Rhizoctonia solani
- procedure-summary: agar diffusion test, in vitro inhibitory activity
- Assay type: cell-based
- condition-parameters: 500 μg per 6 mm filter paper, PDA, 28° C., 72 or 96 hours
test-readout: Zone of inhibition (mm)
The reply should contain only the number, in mm.

In: Zone of inhibition for CCC(C)CCCCCCC(=O)O[C@@H]1C(CO[C@H]2OC(CO)[C@H](O)C(O)C2O)O[C@H](O[C@H]2OC(COC(C)=O)[C@@H](O)C(O)C2O)C(OC(=O)CCC(C)CC)C1OC(=O)C(C)CC (single isomer, unassigned) ?
Out: 12

In: Field entry: CCC(C)CCCCCCC(=O)O[C@@H]1C(CO[C@H]2OC(CO)[C@H](O)[C@H](O)C2O)O[C@H](O[C@H]2OC(CO)[C@@H](O)[C@H](O)C2O)C(OC(=O)CCC(C)CC)[C@H]1OC(=O)C(C)CC (stereo partly shown)
Out: 18

In: Field entry: CCCCCCCCCC(=O)O[C@@H]1C(CO[C@H]2OC(CO)[C@H](O)[C@H](O)C2O)O[C@H](O[C@H]2OC(CO)[C@@H](O)[C@H](O)C2O)C(OC(=O)CCC(C)CC)[C@H]1OC(=O)C(C)CC (stereo partly shown)
Out: 16

In: Field entry: CCCCCCCC(=O)O[C@@H]1C(CO[C@H]2OC(CO)[C@H](O)[C@H](O)C2O)O[C@H](O[C@H]2OC(CO)[C@@H](O)[C@H](O)C2O)C(OC(=O)CCC(C)CC)[C@H]1OC(=O)C(C)CC (stereo partly shown)
Out: 18

* * *

- Test system: Botrytis cinerea
- procedure-summary: agar diffusion test, in vitro inhibitory activity
- Format: cell-based
- condition-parameters: 500 μg per 6 mm filter paper, PDA, 28° C., 72 or 96 hours
- Procedure: Experiment of in vitro inhibitory activities of the trisaccharide ester compounds 1 to 5 obtained in embodiment 2 against common plant pathogenic fungi of twelve genus. […] The antifungal activities of the compounds 1 to 5 were determined by the agar diffusion test. […]
Consider the following compounds; for each one, report its Zone of inhibition.

In: Zone of inhibition for CCCCCCCCCC(=O)O[C@@H]1C(CO[C@H]2OC(CO)[C@H](O)[C@H](O)C2O)O[C@H](O[C@H]2OC(CO)[C@@H](O)[C@H](O)C2O)C(OC(=O)CCC(C)CC)[C@H]1OC(=O)C(C)CC (stereo partly shown) ?
Out: 14 mm

In: Field entry: CCC(C)CCCCCCC(=O)O[C@@H]1C(CO[C@H]2OC(CO)[C@H](O)[C@H](O)C2O)O[C@H](O[C@H]2OC(CO)[C@@H](O)[C@H](O)C2O)C(OC(=O)CCC(C)CC)[C@H]1OC(=O)C(C)CC (stereo partly shown)
Out: 15 mm

In: Field entry: CCC(C)CCCCCCC(=O)O[C@@H]1C(CO[C@H]2OC(CO)[C@H](O)C(O)C2O)O[C@H](O[C@H]2OC(COC(C)=O)[C@@H](O)C(O)C2O)C(OC(=O)CCC(C)CC)C1OC(=O)C(C)CC (single isomer, unassigned)
Out: 9 mm

In: Field entry: CCCCCCCC(=O)O[C@@H]1C(CO[C@H]2OC(CO)[C@H](O)[C@H](O)C2O)O[C@H](O[C@H]2OC(CO)[C@@H](O)[C@H](O)C2O)C(OC(=O)CCC(C)CC)[C@H]1OC(=O)C(C)CC (stereo partly shown)
Out: 10 mm
